Value source: ChEMBL document CHEMBL1132173

# study system: 5-hydroxytryptamine receptor 1A (Rattus norvegicus)
# Sequence (P19327 whole entry): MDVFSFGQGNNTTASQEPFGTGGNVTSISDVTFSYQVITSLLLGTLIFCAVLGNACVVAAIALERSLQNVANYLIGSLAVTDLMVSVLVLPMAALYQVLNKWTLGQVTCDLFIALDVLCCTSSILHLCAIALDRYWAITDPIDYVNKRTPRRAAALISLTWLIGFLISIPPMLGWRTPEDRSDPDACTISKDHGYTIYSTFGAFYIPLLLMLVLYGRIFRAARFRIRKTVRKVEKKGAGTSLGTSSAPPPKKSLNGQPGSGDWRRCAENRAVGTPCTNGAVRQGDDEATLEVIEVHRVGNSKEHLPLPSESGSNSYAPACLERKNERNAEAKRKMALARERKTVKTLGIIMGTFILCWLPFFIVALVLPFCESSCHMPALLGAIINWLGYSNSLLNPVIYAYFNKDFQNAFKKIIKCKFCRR
quantity: Ki (nM)

1. CC1(CNCc2cccc(-n3cccn3)n2)CCN(C(=O)c2ccc(Cl)c(Cl)c2)CC1 | 37.2
2. Cc1cc(CNCC2(F)CCN(C(=O)c3ccc(F)c(Cl)c3)CC2)nc(N(C)C)c1 | 0.562
3. O=C(c1ccc(Cl)c(Cl)c1)N1CC=C(CNCc2cccc(-n3cccn3)n2)CC1 | 6.03
4. O=C(c1ccc(Cl)c(Cl)c1)N1CCC(F)(CNCc2cccc(-c3nccs3)n2)CC1 | 0.794
5. CC(C)c1ccc(CNCC2(F)CCN(C(=O)c3ccc(F)c(Cl)c3)CC2)nc1 | 35.5

[a] COC1(CNCc2cccc(-n3cccn3)n2)CCN(C(=O)c2ccc(Cl)c(Cl)c2)CC1
[b] O=C(c1ccc(Cl)c(Cl)c1)N1CCC(CF)(CNCc2cccc(-n3cccn3)n2)CC1
Hello, I am sorting some records. Could you say if a or b has the smaller Ki value? Respond with the label that goes with your answer. b

[A] O=C(c1ccc(Cl)c(Cl)c1)N1CCC(CNCc2ncccc2F)CC1
[B] O=C(c1ccc(Cl)c(Cl)c1)N1CCC(F)(CNCc2cccc(-c3cnco3)n2)CC1
Hello, I am sorting some records. Could you say if A or B has the smaller Ki value? Respond with the label that goes with your answer. B
(B: 0.468 nM, A: 15.1 nM)
